target: UniProtKB O75914; experiment: In vitro PAK inhibition assay (SelectScreen, Ser/Thr 20 peptide); assay type: biochemical
Sequence (O75914 whole entry): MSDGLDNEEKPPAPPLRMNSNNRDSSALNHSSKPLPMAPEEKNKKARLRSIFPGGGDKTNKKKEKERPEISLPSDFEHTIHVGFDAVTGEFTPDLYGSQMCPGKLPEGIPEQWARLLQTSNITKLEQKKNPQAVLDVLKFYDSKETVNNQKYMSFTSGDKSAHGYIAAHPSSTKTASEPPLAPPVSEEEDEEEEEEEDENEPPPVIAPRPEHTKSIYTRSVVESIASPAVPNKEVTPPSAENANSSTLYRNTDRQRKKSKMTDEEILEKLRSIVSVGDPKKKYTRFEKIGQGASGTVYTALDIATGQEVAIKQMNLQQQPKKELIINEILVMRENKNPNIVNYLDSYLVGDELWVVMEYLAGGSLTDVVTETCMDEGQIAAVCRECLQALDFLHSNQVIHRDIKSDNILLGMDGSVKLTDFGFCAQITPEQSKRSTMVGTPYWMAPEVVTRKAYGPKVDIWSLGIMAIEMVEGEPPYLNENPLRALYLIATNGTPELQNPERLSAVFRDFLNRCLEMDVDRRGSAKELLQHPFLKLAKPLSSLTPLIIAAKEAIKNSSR
pIC50: −log10 of the molar value.
// reported pIC50 per item

Before answering, review these 5 worked examples.
CCn1c(=O)c(-c2ccc(-c3ccc(C)nc3F)cc2Cl)cc2cnc(Nc3ccc(C4CCNCC4)cc3)nc21    6.30 to 7.30
CCn1c(=O)c(-c2ccc(-c3ccc(C)nc3)cc2Cl)cc2cnc(Nc3ccc(C4CCNCC4)cc3)nc21    6.30 to 7.30
CN(C)CCc1ccc(Nc2ncc3cc(-c4ccc(-c5cccnc5N(C)C)cc4Cl)c(=O)n(C)c3n2)cc1    5.30 to 6.30
CCn1c(=O)c(-c2ccc(-c3noc(C)n3)cc2C)cc2cnc(Nc3ccc(C4CCN(C)CC4)cc3)nc21    > 7.30
Cc1ccc(-c2cccnc2)cc1-c1cc2cnc(Nc3ccc(C4CCN(C)CC4)cc3)nc2n(C)c1=O    6.30 to 7.30

Bench note: what pIC50 did CCn1c(=O)c(-c2nc(C3CCNCC3)sc2C)cc2cnc(Nc3ccc(N4CCN(C)CC4)cc3)nc21 show? < 5.30

Again, but for CCn1c(=O)c(-c2ccc(-c3ccnc(C(=O)NC)c3)cc2Cl)cc2cnc(Nc3ccc(C4CCNCC4)c(F)c3)nc21 < 5.30

Again, but for Cc1ncc(-c2ccc(-c3cc4cnc(Nc5ccc(CCN(C)C)cc5)nc4n(C)c3=O)c(Cl)c2)s1 > 7.30
